Assign Plant response rating, Sedge, Umbrella to each entry below.
tested on: sedge, umbrella; experiment: Test B flooded paddy test; format: in vivo, Cyperus difformis; conditions: Flood, 250 g ai/ha; 0 to 100 scale where 0 is no effect and 100 is complete control
Give bare numbers.

For each of the items listed, what is its Plant response rating, Sedge, Umbrella?
1. Fc1cnc(Oc2cccc(F)c2-n2cc(OCC(F)(F)F)cn2)nc1
2. N#Cc1cnn(-c2c(C#N)cccc2Oc2ncc(I)cn2)c1
3. FCc1cccc(Oc2ncc(Cl)cn2)c1-n1cc(Br)cn1
4. Clc1cnc(Oc2cccc(-c3cccnc3)c2-n2cc(Br)cn2)nc1
5. N#Cc1cnn(-c2c(C=O)cccc2Oc2ncc(Cl)cn2)c1
6. N#Cc1cccc(Oc2ncc(Cl)cn2)c1-n1ccnc1
7. Cc1ccn(-c2ccccc2Oc2ncc(Cl)cn2)n1
8. N#Cc1cnn(-c2c(C#N)cccc2Oc2ncc(F)cn2)c1

Result string:
1: 20; 2: 0; 3: 45; 4: 0; 5: 0; 6: 0; 7: 0; 8: 75
